Numbers sourced from paper PMC10649961.

- protocolDescription: In vivo acute toxicity, single intraperitoneal injection
- Design: species or system mice
- particulars: male, CD-1, mouse, in vivo, ip, male CD-1 mice, single intraperitoneal administration, 14 days, Probit analysis
outcomeMeasure: log10(LD50 at 14 days) (log10 of the value in mg/kg)
Log scale reminder: LD50 at 14 days in mg/kg, then log10 taken.

In the examples that follow, each entry is paired with its recorded log10(LD50 at 14 days).
Query: Item under review: CCCCCC[P+](c1ccccc1)(N(CC)CC)N(CC)CC [5a] . Reported log10(LD50 at 14 days)?
Result: 1.65

Query: # get_value(readout='log10(LD50 at 14 days)', item= CCCCCC[P+](N(CC)CC)(N(CC)CC)N(CC)CC [4a] )
Result: 1.50

***
Query: Sample CCCCCCCC[P+](N(CC)CC)(N(CC)CC)N(CC)CC [4b] — what was its log10(LD50 at 14 days)?
Result: 1.64

###

- Test system: mice of the CD-1 line
- protocolDescription: In vivo acute toxicity, single intraperitoneal injection
- particulars: CD-1 mice, i.p., doses of LD100
A collection of compounds and their measured onset of animal death after administration

Example entries and their recorded answers appear below.
Query: Form field: reported onset of animal death after administration of CCCCCCCC[P+](N(CC)CC)(N(CC)CC)N(CC)CC
Result: 1 to 2 h

Query: Find the recorded onset of animal death after administration belonging to CCCCCCCC[P+](c1ccccc1)(N(CC)CC)N(CC)CC and report it.
Result: 1 to 2 h

Query: Requested read-out: onset of animal death after administration. Entry: CCCCCC[P+](N(CC)CC)(N(CC)CC)N(CC)CC
Result: 1 to 2 h

Query: Given the entry CCCCCC[P+](c1ccccc1)(N(CC)CC)N(CC)CC , report its measured onset of animal death after administration.
Result: 1 to 2 h

Now turn to the next compound.
Query: Could you tell me which onset of animal death after administration is on file for CCCCCCCCCC[P+](N(CC)CC)(N(CC)CC)N(CC)CC ?
Result: 1 to 2 h

###

So I've got MIC readings for Bacillus cereus ATCC 10702 NCTC 8035, take a look.
I only need the number, in µM, no unit after it.

Examples with answers:
Query: Missing value: MIC, Bacillus cereus ATCC 10702 NCTC 8035, entry CCCCCCCC[P+](N(CC)CC)(N(CC)CC)N(CC)CC [4b] . Fill in?
Result: 7.8

Query: What MIC appears in the records for this molecule with Bacillus cereus ATCC 10702 NCTC 8035? CCCCCCCCCC[P+](c1ccccc1)(N(CC)CC)N(CC)CC [5d]
Result: 0.9

Query: Item: CCCCCCCCCC[P+](c1ccccc1)(c1ccccc1)N(CC)CC [6d] Test system: Bacillus cereus ATCC 10702 NCTC 8035 Read-out: MIC Value: ?
Result: 0.9

Query: Test system Bacillus cereus ATCC 10702 NCTC 8035; read-out MIC; what value for CCCCCC[P+](N(CC)CC)(N(CC)CC)N(CC)CC [4a] ?
Result: 62.5

Query: For Bacillus cereus ATCC 10702 NCTC 8035, provide MIC of CCn1cc(C(=O)O)c(=O)c2cc(F)c(N3CCNCC3)cc21 [Norfloxacin, reference compound] please.
Result: 24.4

Query: State its MIC on Bacillus cereus ATCC 10702 NCTC 8035: CCCCCCCC[P+](c1ccccc1)(c1ccccc1)c1ccccc1 [compound 8, Octyltriphenylphosphonium iodide, reference compound]
Result: 0.9

***
Query: What is its MIC for Bacillus cereus ATCC 10702 NCTC 8035? Entry: CCCCCCCC[N+](CC)(CC)CC [compound 7, Triethyloctylammonium iodide, reference compound]
Result: 500
